Values from PubChem BioAssay AID2060501

Examples of molecules with documented viability, T/C follow.
system: 282377-053-R-J1-PDC complex spheroids, viability; assay: Anticancer human tumor 282377-053-R-J1-PDC patient-derived colon adenocarcinoma cell line growth inhibition [GQUAD]; details: second compound 0.316 µM; first compound 0.0316 µM; stronger effect = lower value;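 note: spheroids exposed to compounds for 7 days before readout; percent of vehicle DMSO control viability with 100% = untreated-like growth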
Reported Metric: viability, T/C

Molecule	Tgt	Reported Metric	Measured Result
COc1cccc2c1C(=O)c1c(O)c3c(c(O)c1C2=O)CC(O)(C(=O)CO)CC3OC1CC(N)C(O)C(C)O1 (stereo unspecified) + Cc1cnc(CNC(=O)c2c(=O)c3ccc(N4CCCN(C)CC4)nc3n3c2sc2ccccc23)cn1	282377-053-R-J1-PDC complex spheroids, viability	viability, T/C	91.6%
CC(C)n1c(=O)n(C)c2cnc3cc(F)c(-c4ccc(OCCCN5CCCCC5)nc4)cc3c21 + Cc1[nH]c2ccc(F)cc2c1-c1nc2c3cccnc3c3ncccc3c2[nH]1	282377-053-R-J1-PDC complex spheroids, viability	viability, T/C	132%
Cn1ncnc1[C@H]1c2n[nH]c(=O)c3cc(F)cc(c23)N[C@@H]1c1ccc(F)cc1 + CN(C)c1ccc(Nc2c3ccc(NC(=O)CCN4CCCC4)cc3nc3cc(NC(=O)CCN4CCCC4)ccc23)cc1	282377-053-R-J1-PDC complex spheroids, viability	viability, T/C	89.3%
O=C(c1cc(Cc2n[nH]c(=O)c3ccccc23)ccc1F)N1CCN(C(=O)C2CC2)CC1 + CN(C)c1ccc(Nc2c3ccc(NC(=O)CCN4CCCC4)cc3nc3cc(NC(=O)CCN4CCCC4)ccc23)cc1	282377-053-R-J1-PDC complex spheroids, viability	viability, T/C	102%
CC1COCCN1c1cc(C2(O)CC3CCC(C2)O3)c2cnn(-c3ccn[nH]3)c2n1 (stereo unspecified) + CN(C)c1ccc(Nc2c3ccc(NC(=O)CCN4CCCC4)cc3nc3cc(NC(=O)CCN4CCCC4)ccc23)cc1	282377-053-R-J1-PDC complex spheroids, viability	viability, T/C	87.2%
Cc1[nH]c2ccccc2c1CCNCc1ccc(/C=C/C(=O)NO)cc1 + Cc1cnc(CNC(=O)c2c(=O)c3ccc(N4CCCN(C)CC4)nc3n3c2sc2ccccc23)cn1	282377-053-R-J1-PDC complex spheroids, viability	viability, T/C	67.8%
CCCS(=O)(=O)Nc1ccc(F)c(C(=O)c2c[nH]c3ncc(-c4ccc(Cl)cc4)cc23)c1F + CN(C)c1ccc(Nc2c3ccc(NC(=O)CCN4CCCC4)cc3nc3cc(NC(=O)CCN4CCCC4)ccc23)cc1	282377-053-R-J1-PDC complex spheroids, viability	viability, T/C	74.8%
CCCS(=O)(=O)Nc1ccc(F)c(C(=O)c2c[nH]c3ncc(-c4ccc(Cl)cc4)cc23)c1F + Cc1[nH]c2ccc(F)cc2c1-c1nc2c3cccnc3c3ncccc3c2[nH]1	282377-053-R-J1-PDC complex spheroids, viability	viability, T/C	96.4%
COc1cc(C2c3cc4c(cc3C(OC3OC5COC(C)OC5C(O)C3O)C3COC(=O)C23)OCO4)cc(OC)c1O (stereo unspecified) + Cc1[nH]c2ccc(F)cc2c1-c1nc2c3cccnc3c3ncccc3c2[nH]1	282377-053-R-J1-PDC complex spheroids, viability	viability, T/C	102%
COc1ccc([C@@H](O)c2cc(-c3ncnc4cc(N5CCOCC5)ccc34)c(F)cc2Cl)nn1 + Cc1[nH]c2ccc(F)cc2c1-c1nc2c3cccnc3c3ncccc3c2[nH]1	282377-053-R-J1-PDC complex spheroids, viability	viability, T/C	87.8%
O=C(NO)c1cnc(N2CCN(S(=O)(=O)c3ccc4ccccc4c3)CC2)nc1 + Cc1[nH]c2ccc(F)cc2c1-c1nc2c3cccnc3c3ncccc3c2[nH]1	282377-053-R-J1-PDC complex spheroids, viability	viability, T/C	63.6%
